Target: SSAO activity in homogenized human LIMA (Homo sapiens, UniProt Q16853)
Construct: Blood vessel segments were homogenized in Sorensen's Na^+/K^+-phosphate buffered solution
Sequence (Q16853 1-763): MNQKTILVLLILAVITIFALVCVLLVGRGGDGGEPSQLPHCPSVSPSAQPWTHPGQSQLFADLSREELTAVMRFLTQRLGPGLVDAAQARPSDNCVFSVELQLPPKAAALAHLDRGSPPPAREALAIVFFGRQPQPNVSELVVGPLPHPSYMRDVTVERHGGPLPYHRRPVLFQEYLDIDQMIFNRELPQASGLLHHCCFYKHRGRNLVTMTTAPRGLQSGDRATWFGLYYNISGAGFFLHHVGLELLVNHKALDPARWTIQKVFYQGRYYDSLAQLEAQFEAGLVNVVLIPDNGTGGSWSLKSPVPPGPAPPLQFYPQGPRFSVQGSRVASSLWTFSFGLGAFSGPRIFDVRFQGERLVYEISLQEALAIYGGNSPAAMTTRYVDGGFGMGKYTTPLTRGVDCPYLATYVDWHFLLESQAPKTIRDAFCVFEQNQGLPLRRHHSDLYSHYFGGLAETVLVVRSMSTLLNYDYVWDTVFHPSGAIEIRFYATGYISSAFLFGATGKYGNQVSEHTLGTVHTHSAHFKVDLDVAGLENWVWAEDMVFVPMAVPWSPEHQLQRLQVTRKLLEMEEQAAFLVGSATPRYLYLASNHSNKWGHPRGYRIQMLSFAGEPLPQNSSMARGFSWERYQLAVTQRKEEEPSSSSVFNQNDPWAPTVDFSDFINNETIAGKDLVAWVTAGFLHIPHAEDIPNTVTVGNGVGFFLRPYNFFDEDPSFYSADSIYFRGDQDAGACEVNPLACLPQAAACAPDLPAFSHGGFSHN
Assay: Radiometric SSAO assay (14C-benzylamine), homogenized LIMA
Settings: homogenate preincubated 20 min, 37° C.; n=25

[
  {
    "compound": "NNC(N)=O [semicarbazide]",
    "targetOrSystem": "SSAO activity in homogenized human LIMA (Homo sapiens, UniProt Q16853)",
    "IC50 / µM": 16.7
  }
]

Value source: patent US20050180956A1
